These entries and their values trace back to patent US8969542B2.

target: HLA A6802 (Homo sapiens, UniProt P04439, A269V/D140Y/D185E/E176V/E277Q/E87N/F33Y/G231S/I121R/I166T/I218V/L180W/L300P/L318F/N151K/P208A/P217A/Q86R/R138H/R169H/S129P/T345S/V36M)
protocol: HLA class I competition binding assay using soluble HLA
Where no end group is shown, it is not given here.
Threshold 2000 nM: IC50 strictly smaller gives t, otherwise f.

Known results for sequences:
# polymerSequence, category
records = [
    ("KLTNTGLYNV [compound 31]", "t"),
    ("TLHDIILECV [compound 9]", "f"),
    ("YVVWDSIYYI [compound 73]", "t"),
    ("YQFAFKDLCV [compound 76]", "f"),
]

Hello, is IC50 of the following sequence strictly smaller than 2000 nM? FLFTDLTIV [compound 53] t

Threshold test, IC50 < 2000 nM: SLVFLLCFSV [compound 74] t

API: query returns whether the sequence falls strictly under 2000 nM in IC50. Query: KLTNKGICDL [compound 54] f

hey, is IC50 for FVYIPLFLI [compound 8] lower than 2000 nM or not? t

Item ILYAHIQCL [compound 27] : IC50 beneath 2000 nM, strictly? f

---

Test system: CD8+ spleen cells of HLA transgenic mice (HLA-A01/Kb, F1 HLA-A02/KbxBalb/c, HLA-A11/Kb, HLA-A24/Kb)
protocol: Immunogenicity after HPV DNA construct immunization, direct ex vivo IFNγ ELISPOT
Assay type: in vivo, mouse
experimentalSetup: HLA-A02 epitopes, F1 HLA-A02/KbxBalb/c mice, DNA construct ICCG6150; median of mouse pools
Measured Ratio accompanies every entry in the list below.
Write the value as a bare number.

Completed entries (count: 3):
# substance, Ratio
records = [
    ("135 (TIHDIILECV; Human papillomavirus type 16) [compound 135]", 24.8),
    ("133 (YMLDLQPETT; Human papillomavirus type 16) [compound 133]", 3.3),
    ("134 (GTLGIVCPI; Human papillomavirus type 16) [compound 134]", 1.7),
]

Notebook: 136 (KLTNTGLYNL; Human papillomavirus type 18) [compound 136] , Ratio read as 2.7

---

target: DRB5*0101 (DR2w2beta-2) (Homo sapiens, UniProt P01903+Q30154)
protocol: biochemical
Where no end group is shown, it is not given here.
measurementName: pIC50
// field semantics: pIC50 = negative decimal log of concentration (mol/L)

# polymerSequence, pIC50
measured = [
    ("DWVMAIFGVNPTVAEGF [compound 114]", 6.41),
    ("WKHIRLECVLMYKAR [compound 108]", 6.39),
    ("NGWFYVEAVIDRQTG [compound 106]", 5.92),
]

Switching to the query record.
Consider WKHMRLECAIYYKAR [compound 91] . Its measured pIC50 is 6.55

---

target: HLA A3002 (Homo sapiens, UniProt P04439, D101N/D140H/D185E/E176R/F33S/G80R/H175R/K168Q/Q94H/R138E/R41S/V100E)
protocol: HLA class I competition binding assay using soluble HLA
Where no end group is shown, it is not given here.
measurementName: log10 of IC50 (log10 of the value in µM)
All values: base-10 log of IC50 in µM.

log10 of IC50 reading for VVFIYIPLF [compound 64] : -0.57

For reference, reported log10 of IC50 for FYSKVSEFRW [compound 65] stands at 0.13

Input QVDYYGLYY [compound 2] . Output log10 of IC50: -0.80

Item: LSSALEIPY [compound 46] | log10 of IC50: -0.76

Lab book: log10 of IC50 of VYGTTLEKL [compound 66] noted as 0.09

// log10 of IC50 lookup, sequence = SYFGMSFIHF [compound 39] , result: 0.19

Looking up LSQMVQWAY [compound 1] , I see its log10 of IC50 listed as -3.03

Looking up LQDKILDHY [compound 67] , I found its log10 of IC50 recorded as -0.08

The recorded log10 of IC50 for entry HYTNWKFIF [compound 63] equals 0.69

---

target: DRB1*0802 (DR8w2) (Homo sapiens, UniProt P01903+P01911, A100R/A103L/A169T/F76Y/H45Y/I96F/K41T/L162R/M171V/P40S/Q125H/Q178H/Q39Y/Q99D/R218S/R42G/S66Y/V115G/W38E)
protocol: biochemical
Where no end group is shown, it is not given here.
Some sequences, each annotated with its measured IC50.
Don't forget the unit after the number, please.

# polymerSequence, valueObserved
measured = [
    ("WKHIRLECVLMYKAR [compound 108]", "476 nM"),
    ("DWVMAIFGVNPTVAEGF [compound 114]", "4270 nM"),
]

Attention now shifts to the item below.
get_value(item= WKHMRLECAIYYKAR [compound 91] , readout=IC50) returns 90 nM

---

target: HLA A0202 (Homo sapiens, UniProt P04439, D140Y/D185E/D98H/E176V/E277Q/G131W/G231S/I119L/I121R/I166T/I218V/L180W/L300P/L318F/N151K/N90K/P208A/P217A/Q67R/Q86G/Q94H/R138H/R169H/T345S)
protocol: HLA class I competition binding assay using soluble HLA
Where no end group is shown, it is not given here.
yes if IC50 is below 30 nM. no if not; exact matches included in no.

Some solved entries appear below for comparison.
# polymerSequence, category
records = [
    ("KLTNTGLYNV [compound 31]", "yes"),
    ("FLFTDLTIV [compound 53]", "yes"),
    ("KLTNKGICDL [compound 54]", "no"),
]

Next item in the queue.
Does TVYVFCFLL [compound 29] have IC50 strictly under 30 nM? no

---

Listed below: Ratio values for each entry.
Tested on: CD8+ spleen cells of HLA transgenic mice (HLA-A01/Kb, F1 HLA-A02/KbxBalb/c, HLA-A11/Kb, HLA-A24/Kb)
protocol: Immunogenicity after peptide pool/IFA immunization, direct ex vivo IFNγ ELISPOT
Type: in vivo, mouse
experimentalSetup: HLA-A02 epitopes, F1 HLA-A02/KbxBalb/c mice, Peptide Pool; median of mouse pools
Write the value as a bare number.

# substance, measurementName, valueObserved
rows = [
    ("134 (GTLGIVCPI; Human papillomavirus type 16) [compound 134]", "Ratio", 8.0),
    ("135 (TIHDIILECV; Human papillomavirus type 16) [compound 135]", "Ratio", 10.0),
]

// Ratio lookup, substance = 136 (KLTNTGLYNL; Human papillomavirus type 18) [compound 136] , result: 29.0

So, 133 (YMLDLQPETT; Human papillomavirus type 16) [compound 133] ? Its Ratio was 1.0

---

pIC50 listing for selected sequences.
target: HLA A2601 (Homo sapiens, UniProt P04439, A114D/A173T/A270S/D101N/D185E/E277Q/E87N/F33Y/G231S/I121R/I218V/K168Q/L180W/L300P/L318F/P208A/P217A/Q86R/Q94H/R138Q/S129P/T187R/T323A/T345S/V100A/V358M)
protocol: HLA class I competition binding assay using soluble HLA
Where no end group is shown, it is not given here.
# reply with the number alone; pIC50 is -log10 of concentration in mol/L

As a guide, the following entries are already answered.
# polymerSequence, pIC50
records = [
    ("STDLRDHIDY [compound 3]", 6.12),
    ("ATCVSHRGLY [compound 25]", 6.19),
]

# evaluate next
get_value(item= QVDYYGLYY [compound 2] , readout=pIC50) returns 6.60

---

target: HLA A0206 (Homo sapiens, UniProt P04439, D140Y/D185E/D98H/E176V/E277Q/F33Y/G131W/G231S/I119V/I121R/I166T/I218V/L300P/L318F/N151K/N90K/P208A/P217A/Q86G/Q94H/R138H/R169H/T345S)
protocol: HLA class I competition binding assay using soluble HLA
Where no end group is shown, it is not given here.
measurementName: IC50 (nM)
Note: unit nM is implicit; provide only the numeric part.

# polymerSequence, unitOfMeasurement, valueObserved
data = [
    ("TLHDIILECV [compound 9]", "nM", 92),
    ("YQFAFKDLCV [compound 76]", "nM", 10),
    ("FLFTDLTIV [compound 53]", "nM", 20),
    ("CLYLHIQSL [compound 6]", "nM", 100),
    ("YVVWDSIYYI [compound 73]", "nM", 20),
]

--- query ---
The reported IC50 of the sequence FIYIPLFVI [compound 52] was 8.1
